- targetDesc: CK2A1 (CK2α/β) (Homo sapiens, UniProt P68400)
- Sequence (P68400 whole entry, species assumed): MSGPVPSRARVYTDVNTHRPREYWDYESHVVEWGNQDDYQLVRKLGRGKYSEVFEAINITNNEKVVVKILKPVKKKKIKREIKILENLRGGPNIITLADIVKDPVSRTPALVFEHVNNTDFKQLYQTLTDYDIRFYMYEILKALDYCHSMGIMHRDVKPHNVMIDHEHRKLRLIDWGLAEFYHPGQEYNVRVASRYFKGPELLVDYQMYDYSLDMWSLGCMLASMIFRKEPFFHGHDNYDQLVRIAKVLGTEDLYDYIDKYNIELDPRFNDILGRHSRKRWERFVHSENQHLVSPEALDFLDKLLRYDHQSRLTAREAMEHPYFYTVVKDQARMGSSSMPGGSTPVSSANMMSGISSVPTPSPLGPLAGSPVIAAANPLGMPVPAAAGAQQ
- Sequence (P67870 whole entry partner, species assumed): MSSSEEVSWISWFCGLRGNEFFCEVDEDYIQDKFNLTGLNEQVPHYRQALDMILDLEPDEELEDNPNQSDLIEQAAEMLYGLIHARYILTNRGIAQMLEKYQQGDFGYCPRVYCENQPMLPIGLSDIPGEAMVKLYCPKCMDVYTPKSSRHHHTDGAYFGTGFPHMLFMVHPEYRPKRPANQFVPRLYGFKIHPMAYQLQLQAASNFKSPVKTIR
- assayDetails: CK2 kinase assay, CK2A1 (CK2α/β)
- Assay type: biochemical
- runConditions: Table A; read-out: CK2A1 (CK2α/β) (IC50)
Where a name gives a salt, the structure may show the parent alone.
Can you tell me pIC50 for the items I'm about to list?
Note on units: pIC50 is unitless, being -log10 of a concentration expressed in mol/L.

Kindly note the recorded pIC50 for CC(C)(O)CN1CCC2CN(c3cc(C#N)cc(Nc4nc(NC5CC5)c5ncc(C#N)n5n4)c3Cl)CCC21 (stereo not shown) , which is 8.82

Kindly note the recorded pIC50 for COC(=O)Nc1cc(Nc2nc(NC3CC3)c3ncc(C#N)n3n2)c(Cl)c(N2CCC(N3CCOCC3)CC2)c1 , which is 8.71

Kindly note the recorded pIC50 for N#Cc1cc(Nc2nc(NC3CC3)c3ncc(C#N)n3n2)c(Cl)c(N2CCC(C(CO)CO)CC2)c1 , which is 9.38

Kindly note the recorded pIC50 for CCNc1nc(Nc2cc(C#N)cc(N3CC[C@@H](NC(=O)OC)[C@@H](N(C)C4COC4)C3)c2Cl)nn2c(C#N)cnc12 , which is 8.89

Kindly note the recorded pIC50 for CCNc1nc(Nc2cc(C#N)cc(N3CC[C@@H](NC(=O)OC)[C@H](OC(=O)CC[C@H](N)C(=O)OC)C3)c2Cl)nn2c(C#N)cnc12 [Example 814, hydrochloride] , which is 7.60

Kindly note the recorded pIC50 for CCNc1nc(Nc2cc(C#N)cc(N3CCN(CC(C)O)CC3)c2Cl)nn2c(C#N)cnc12 (stereo in doubt) , which is 8.89

Kindly note the recorded pIC50 for N#Cc1cc(Nc2nc(NC3CC3)c3ncc(C#N)n3n2)c(Cl)c([C@H]2CCC[C@@H](N3CC(F)C3)C2)c1 [Example 726] , which is 8.63

----------
Can you tell me log10 of IC50 for the items I'm about to list?
- targetDesc: CK2A1 (CK2α/β) (Homo sapiens)
- assayDetails: CK2 kinase assay, CK2A1 (CK2α/β)
- Type: biochemical
- runConditions: Table A; read-out: CK2A1 (CK2α/β) (IC50)
Log scale reminder: IC50 in nM, then log10 taken.

Kindly note the recorded log10 of IC50 for CCN(C1CCN(c2cc(C#N)cc(Nc3nc(NC4CC4)c4ncc(C#N)n4n3)c2Cl)CC1)C1CC(=O)N(C)C1 (stereo not drawn) [Example 715] , which is 1.03

Kindly note the recorded log10 of IC50 for CCNC(=O)OCC1CN(c2cc(C#N)cc(Nc3nc(NC4CC4)c4ncc(C#N)n4n3)c2Cl)CCO1 (racemic) [Example 699] , which is -0.01

Kindly note the recorded log10 of IC50 for N#Cc1cc(Nc2nc(NC3CC3)c3ncc(C#N)n3n2)c(Cl)c(N2CCN(C(=O)C(F)F)CC2)c1 [Example 75] , which is -0.39

Kindly note the recorded log10 of IC50 for CCNc1nc(Nc2ccc3c(c2)c(C#N)cn3C2CCN(C3COCC3O)CC2)nn2c(C#N)cnc12 (racemic) [Example 825] , which is -0.52

Kindly note the recorded log10 of IC50 for CN1CCN(c2cc(C#N)cc(Nc3nc(NC4CC4)c4ncc(C#N)n4n3)c2Cl)CC1 [Example 1] , which is -0.05

Kindly note the recorded log10 of IC50 for N#Cc1cc(Nc2nc(NC3CC3)c3ncc(C#N)n3n2)c(Cl)c(N2CCC3(CC2)COC3)c1 [Example 48] , which is -0.15

Kindly note the recorded log10 of IC50 for COC(=O)NN1CCN(c2cc(C#N)cc(Nc3nc(NC4CC4)c4ncc(C#N)n4n3)c2Cl)CC1 [Example 790] , which is 0.18

Kindly note the recorded log10 of IC50 for N#Cc1cc(Nc2nc(NC3CC3)c3ncc(C#N)n3n2)c(Cl)c(N2CCN(C3CN(C(=O)C(F)F)C3)CC2)c1 [Example 491] , which is 0.12

Kindly note the recorded log10 of IC50 for CC(=O)N1CCC2(CC1)CN(c1cc(C#N)cc(Nc3nc(NC4CC4)c4ncc(C#N)n4n3)c1Cl)C2 [Example 806] , which is -0.08

Kindly note the recorded log10 of IC50 for COC1CCN(C2CN(c3cc(C(F)F)cc(Nc4nc(NC5CC5)c5ncc(C#N)n5n4)c3Cl)C2)CC1 [Example 260] , which is 0.33

Kindly note the recorded log10 of IC50 for N#Cc1cc(Nc2nc(NC3CC3)c3ncc(C#N)n3n2)c(Cl)c(N2CCN(C3CN(C(=O)CCO)C3)CC2)c1 [Example 495] , which is 0.69

Kindly note the recorded log10 of IC50 for CCNc1nc(Nc2cc(C#N)cc(N3CCC(NC4COC4)CC3)c2Cl)nn2c(C#N)cnc12 [Example 363] , which is -0.11

Kindly note the recorded log10 of IC50 for CN1CCN(C(=O)C2CCN(c3cc(C(F)F)cc(Nc4nc(NC5CC5)c5ncc(C#N)n5n4)c3Cl)CC2)CC1 [Example 546] , which is 0.43

Kindly note the recorded log10 of IC50 for CC1(N2CCN(c3cc(C#N)cc(Nc4nc(NC5CC5)c5ncc(C#N)n5n4)c3Cl)CC2)COC1 [Example 311] , which is -0.02

Kindly note the recorded log10 of IC50 for CN1CC2(CCN(c3cc(C#N)cc(Nc4nc(NC5CC5)c5ncc(C#N)n5n4)c3Cl)CC2)CC1=O (racemic) [Example 782] , which is -0.24
